All figures here come from the supplement of paper PMC7726561.

Here the recorded thermal melting temperature is given for each entry.
measured.target: HLA-C*04:01
run.description: thermal melting temperature (Tm) of peptide-HLA complex; higher = more thermostable pHLA complex
protocol.conditions: C1R-A*02:01
readout.name: thermal melting temperature (°C)

   sequence_code  assay_value
0      IWDETPLYF         50.8
1      LYDVPANSM         51.1
2      FYPPDPAQL         49.5
3      KYDPNVYSI         50.6
